# measurement_target: SARS-CoV-2 N NTD (SARS-CoV-2, UniProt P0DTC9 44-180)
# procedure_summary: MST; 20 nM RNA; no suramin; apparent Kd
# condition_notes: protein: recombinant; tags: 6xHis; label: 5'-Cy5
quantity: Kd (µM)

- binder: "AUUAAAG (ssRNA) [Cy5-ssRNA 7-mer]"
  endpoint_unit: "µM"
  result_number: 30.6

// provenance: paper PMC10514558
